Test: A quantitative high throughput screen for small molecules that induce DNA re-replication in MCF 10a normal breast cells. Also: nearly all actives have a fitted effect of over 50% in size.
Conditions: MCF 10A DNA re-replication, Hoechst nuclear intensity, 48 h; series mostly up to 46.1 µM
The campaign covered roughly 350,000 compounds. About 9,900 (2.8%) were called active. Inconclusive results (about 15%) are left out. Calls follow the shape of the dose curve; as a rule, active = well fitted activation curve with a large enough effect; inconclusive = small, poorly fitted or top-dose-only effect; inactive = no such curve, though single readings can be large or run the other way. This is one part of a sample in which actives are shown more often than they occur.
// allowed return values: Yes (active), No (inactive)

Here are 6 compounds together with their reported answers.
*Q* Record lookup: outcome of this test for CC(OC(=O)c1c(F)cccc1F)C(=O)NCCC1=CCCCC1 (stereo unspecified) ?
*A* No

*Q* How did this test come out for `CCCOc1ccc(Cn2ccnc2)cc1[N+](=O)[O-]` ?
*A* No

*Q* Record lookup: outcome of this test for `CN1CCN(c2ccc(NC(=O)c3ccccc3)cc2)CC1` ?
*A* No

*Q* Name the outcome recorded for CCc1ccc(CNC(=O)C2CC(=O)N(CCc3ccc(C)cc3)C2)cc1 (stereo unspecified) in the assay.
*A* No

*Q* Call for entry `CN(C)c1ccc(CSc2ccccc2)cc1` :
*A* No

*Q* // return assay outcome for `CCOc1ccc(N2C(=O)CSC2=NC#N)cc1`
*A* No

Further cases:
*Q* Tell me the assay call for `COc1cccc(C2=CC(=O)C[C@H](c3ccc(OC)c(OC)c3)C2)c1` please.
*A* No

*Q* Hello, I am checking results. What call was entered for O=C(OCCN1C(=O)c2ccccc2C1=O)[C@@H]1CC(O)CN1S(=O)(=O)c1ccccc1[N+](=O)[O-] (stereo partly specified) ?
*A* No

*Q* Each compound tested received a call. Report the one for CC(=O)OC1CCC2(C)C(=CCC3C4CC(=O)N(O)C(=O)C4(C)CCC32)C1 (stereo unspecified) .
*A* No

*Q* So what was the verdict on Cc1ccc(S(=O)(=O)N(C)C)cc1NC(=O)C(C)OC(=O)c1ccc2ccccc2n1 (stereo unspecified) in this test?
*A* No

*Q* Identify the outcome logged in this assay for the compound shown: `CCCCCOc1ccc(CSC2=NCCN2)cc1[N+](=O)[O-]`
*A* Yes

Attribution: PubChem BioAssay AID624296
